Reference for the values: ChEMBL document CHEMBL1268874

Assign MIC to each entry below.
# Tested on: Staphylococcus aureus
# assay-info: Antibacterial activity against Staphylococcus aureus ATCC 25923 after 16 to 20 hrs by broth microdilution method
# Type: functional

{"compound": "CC(=O)OC(C(=O)Cc1c[nH]c2ccccc12)C(C)C (stereo not given)", "attribute-measured": "MIC", "measured": "> 80 µg/mL"}
{"compound": "CC(=O)OC(Cc1c[nH]c2ccccc12)C(=O)C(C)C (stereo not given)", "attribute-measured": "MIC", "measured": "> 90 µg/mL"}
{"compound": "O=C(O)c1cn(C2CC2)c2cc(N3CCNCC3)c(F)cc2c1=O", "attribute-measured": "MIC", "measured": "469 µg/mL"}

Please supply MIC for each of the following items, keeping them in order.
1. CC(C)C(=O)C(O)Cc1c[nH]c2ccccc12 (single isomer, unassigned; (+))
2. CC(C)C(O)C(=O)Cc1c[nH]c2ccccc12 (single isomer, unassigned; (-))

A:
> 80 µg/mL
> 80 µg/mL
